# Target or system: human ALK2 R206H (Homo sapiens, UniProt Q04771, R206H)
# Assay summary: Cell-based ALK2-R206H cell activity assay (Smad1-Ser463/Ser465 phosphorylation by AlphaLISA in HEK293-ALK2-R206H cells)
# Experimental parameters: phospho-Smad1 AlphaLISA, read-out: Cell Line (Cell Assay, IC50 class)
pIC50: −log10 of the molar value.
Value type: pIC50

Req: Would you mind telling me what pIC50 value was observed for CCOC(=O)N1CCN(c2ccnc3[nH]c(-c4ccc(C#N)cn4)cc23)CC1 [Compound 56] ?
Resp: 6.30 to 7.00

Req: Please report the recorded pIC50 for CCOC(=O)N1CCN(c2ccnc3[nH]c(-c4cnn(C)c4)c(C#N)c23)CC1 [Compound 68] .
Resp: ≥ 7.00

Req: If you can, please state the reported pIC50 value of Cc1nc(-c2cc3c(N4CCN(C(=O)[C@H]5C[C@H](C#N)C5)CC4)ccnc3[nH]2)cs1 [Compound 205] .
Resp: ≥ 7.00

Req: Look at this molecule and give its reported pIC50. COCCOc1ccc(-c2cc3c(N4CCN(C(=O)C5CC5)CC4)ccnc3[nH]2)cc1 [Compound 286]
Resp: 6.30 to 7.00

Req: GET /values?readout=pIC50&item= CCOc1ccc(-c2cc3c(N4CCN(C(=O)C5CC5)CC4)ccnc3[nH]2)cc1 [Compound 127]
Resp: 6.30 to 7.00

Req: GET /values?readout=pIC50&item= CCOC(=O)N1CCN(c2ccnc3[nH]c(-c4ccc([C@@]5(O)CCOC5)cc4)cc23)CC1 [Compound 355]
Resp: ≥ 7.00

Req: Quick one: pIC50 for Cc1nc(-c2cc3c(N4CCN(C(=O)OC5CCC5)CC4)ccnc3[nH]2)cs1 [Compound 159] ?
Resp: ≥ 7.00

Req: Give its pIC50 value. Item: O=C(OC1COC1)N1CCN(c2ccnc3[nH]c(-c4csc(C(F)(F)F)n4)cc23)CC1 [Compound 408]
Resp: 6.30 to 7.00

###

# Target or system: human ALK2 R206H (Homo sapiens, UniProt Q04771, R206H)
# Assay summary: Cell-based ALK2-R206H cell activity assay (Smad1-Ser463/Ser465 phosphorylation by AlphaLISA in HEK293-ALK2-R206H cells)
# Experimental parameters: phospho-Smad1 AlphaLISA, read-out: Cell Line (Cell Assay, IC50 class)
# Description: Example 11. Cell-Based ALK2-R206H Cell Activity Assay […] After 2-3 hours of incubation with test compound or control, the cells were lysed and signal was developed using ALPHASCREEN® SUREFIRE® SMAD1 (p-Ser463/465) cellular kinase assay kit (PerkinElmer, Cat No. TGRSM1S10K) following the manufacturer's recommended protocol. The microplates were read using Perkin Elmer ENVISION® plate reader (emission 520-620 nM). […]
Value type: IC50

Req: Quick check: IC50 of O=C(C1CC1)N1CCN(c2ccnc3[nH]c(-c4ccc(F)cc4)cc23)CC1 ?
Resp: 0.1 to 0.5 µM

Req: I would be grateful if you could share the reported IC50 for O=C(C1CC1)N1CCN(c2ccnc3[nH]c(-c4cnn(C5CCCC5)c4)cc23)CC1 .
Resp: ≤ 0.1 µM

Req: Which IC50 value is on record for O=C(O[C@H]1C[C@H](F)C1)N1CCN(c2ccnc3[nH]c(-c4cn(C(F)F)cn4)cc23)CC1 ?
Resp: ≤ 0.1 µM

Req: For the molecule shown here, CCOC(=O)N1CCN(c2ccnc3[nH]c(-c4ccc(OC(C)C)cc4)cc23)CC1 , give the reported IC50.
Resp: 0.1 to 0.5 µM

Req: Record request: IC50 value, item O=C(c1ccc(-c2cc3c(N4CCN(C(=O)C5CC5)CC4)ccnc3[nH]2)cc1)N1CCC1
Resp: 0.1 to 0.5 µM

Req: Quick one: IC50 of Cn1cc(-c2[nH]c3nccc(N4CCN(C(=O)OC5COC5)CC4)c3c2Br)cn1 ?
Resp: 0.1 to 0.5 µM

Req: // IC50 lookup, key: O=C(OC1COC1)N1CCN(c2ccnc3[nH]c(-c4ccc([C@]5(O)CCOC5)cc4)cc23)CC1
Resp: ≤ 0.1 µM

Req: Requested field: IC50. Item: Cn1ccc(-c2cc3c(N4CCN(C(=O)OC5COC5)CC4)ccnc3[nH]2)n1
Resp: 0.1 to 0.5 µM

###

Kindly state pIC50 for each of the entries shown.
# Target or system: ALK2R206H (mutant ALK2, N-terminally tagged with GST) (Homo sapiens, UniProt Q04771, R206H)
# Construct: purchased Carna Bioscience or ThermoFisher 09-148 or PV6232
# Sequence (Q04771 21-509 R206H): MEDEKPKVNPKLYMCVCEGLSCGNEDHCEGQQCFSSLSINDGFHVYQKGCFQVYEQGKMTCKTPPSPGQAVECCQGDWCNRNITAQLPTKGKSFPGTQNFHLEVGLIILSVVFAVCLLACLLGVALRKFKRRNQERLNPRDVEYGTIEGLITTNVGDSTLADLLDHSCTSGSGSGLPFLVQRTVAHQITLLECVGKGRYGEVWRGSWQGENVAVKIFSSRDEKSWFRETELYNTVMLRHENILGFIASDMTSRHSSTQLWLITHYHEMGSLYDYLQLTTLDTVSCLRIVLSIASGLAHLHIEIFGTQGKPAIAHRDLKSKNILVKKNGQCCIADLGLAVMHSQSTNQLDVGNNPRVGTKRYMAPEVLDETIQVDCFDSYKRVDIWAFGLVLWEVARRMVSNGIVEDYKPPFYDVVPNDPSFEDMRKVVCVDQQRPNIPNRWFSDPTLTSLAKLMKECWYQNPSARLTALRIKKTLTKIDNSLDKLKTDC
# Assay summary: ALK binding assay (LANTHASCREEN TR-FRET competitive binding, displacement of Kinase Tracer 178)
# Experimental parameters: read-out: Binding Assay (IC50 class)
pIC50: −log10 of the molar value.

Req: Given the molecule Cc1c(-c2cnn(C)c2)[nH]c2nccc(N3CCN(C(=O)O[C@H]4C[C@H](F)C4)CC3)c12 , what is its reported pIC50?
Resp: ≥ 8.00

Req: # pIC50 lookup, item CCC(=O)c1ccc(-c2cc3c(N4CCN(C(=O)C5CC5)CC4)ccnc3[nH]2)cc1
Resp: ≥ 8.00

Req: Quick check: pIC50 of O=C(OC1COC1)N1CCN(c2ccnc3[nH]c(-c4csc(C(=O)N5CCCC5)n4)cc23)CC1 ?
Resp: ≥ 8.00

Req: Consider the molecule shown here: Cc1c(-c2cc3c(N4CCN(C(=O)OC5COC5)CC4)ccnc3[nH]2)cnn1C(C)C What is its recorded pIC50?
Resp: ≥ 8.00

Req: Value lookup for pIC50; key = Cc1cnc(-c2cc3c(N4CCN(C(=O)C5CC5)CC4)ccnc3[nH]2)s1
Resp: ≥ 8.00

Req: Query (molecule): O=C(C1CC1)N1CCN(c2ccnc3[nH]c(-c4ccc(C5CCN(C6COC6)CC5)cc4)cc23)CC1 ; field requested: pIC50
Resp: ≥ 8.00

Req: Item under review: Cn1cc(-c2cc3c(N4CCN(C(=O)OCC5CCCO5)CC4)ccnc3[nH]2)cn1 (stereo not shown) . Reported pIC50?
Resp: ≥ 8.00

Req: Request the reported pIC50 associated with Cc1nc(-c2cc3c(N4CCN(C(=O)OC5COC5)CC4)ccnc3[nH]2)sc1C
Resp: ≥ 8.00

Req: I would be grateful if you could share the reported pIC50 for Cc1csc(-c2cc3c(N4CCN(C(=O)OC5COC5)CC4)ccnc3[nH]2)c1 .
Resp: ≥ 8.00

Req: Quick check: pIC50 of Cn1cc(-c2[nH]c3nccc(N4CCN(C(=O)O[C@@H]5CCC5(F)F)CC4)c3c2C#N)cn1 ?
Resp: ≥ 8.00

Req: Data request, read-out pIC50, for Cn1cc(-c2cc3c(N4CCN(C(=O)CC(F)(F)F)CC4)ccnc3[nH]2)cn1
Resp: 7.30 to 8.00

Req: Looking for the measured pIC50 of Cn1cc(-c2cc3c(N4CCN(C(=O)[C@H]5CCOC5)CC4)ccnc3[nH]2)cn1 , can you help?
Resp: ≥ 8.00

Req: So what's the measured pIC50 for this one? CCN1CCN(c2ccc(-c3cc4c(N5CCN(C(=O)C6CC6)CC5)ccnc4[nH]3)c(Cl)c2)CC1
Resp: ≥ 8.00

Req: Please look up its pIC50: CC(C)(C)c1csc(-c2cc3c(N4CCN(C(=O)OC5COC5)CC4)ccnc3[nH]2)n1
Resp: ≥ 8.00

Req: Given Cn1cc(-c2[nH]c3nccc(N4CCN(C(=O)OCC(F)F)CC4)c3c2C#N)cn1 , state its recorded pIC50.
Resp: ≥ 8.00

Req: GET /values?readout=pIC50&item= O=C(C1CC1)N1CCN(c2ccnc3[nH]c(-c4ccc(C5CCCOC5)cc4)cc23)CC1 (stereo not shown)
Resp: ≥ 8.00

Req: Give the measured pIC50 of Cn1cc(-c2cc3c(N4CCN(C(=O)O[C@H]5CC(F)(F)C5(F)F)CC4)ccnc3[nH]2)cn1 .
Resp: ≥ 8.00

Req: Please report the recorded pIC50 for Cn1cc(-c2[nH]c3nccc(N4CCN(C(=O)O[C@H]5C[C@H](F)C5)CC4)c3c2Cl)cn1 .
Resp: ≥ 8.00

Req: What measured pIC50 goes with Cn1cnc(-c2[nH]c3nccc(N4CCN(C(=O)OCC(F)F)CC4)c3c2C#N)c1 ?
Resp: ≥ 8.00

Req: Reported pIC50, molecule Cc1cnc(-c2cc3c(N4CCN(C(=O)OC5COC5)CC4)ccnc3[nH]2)o1 : ____
Resp: 7.30 to 8.00

Req: If you can, please state the reported pIC50 value of Cn1cnc(-c2[nH]c3nccc(N4CCN(C(=O)OC5CCC5)CC4)c3c2C#N)c1 .
Resp: ≥ 8.00

Req: Given the molecule O=C(C1CC1)N1CCN(c2ccnc3[nH]c(-c4ccc(N5CCNC6(COC6)C5)cc4)cc23)CC1 , what is its reported pIC50?
Resp: ≥ 8.00

Req: Give the measured pIC50 of CC(C)OC(=O)N1CCN(c2ccnc3[nH]c(-c4cnn(C)c4)c(C#N)c23)CC1 .
Resp: ≥ 8.00

Req: Please give the measured pIC50 for this molecule: O=C(C1CC1)N1CCN(c2ccnc3[nH]c(-c4ccc(C5CCNCC5(F)F)cc4)cc23)CC1 (stereo not shown)
Resp: ≥ 8.00

Req: Item under review: O=C(C1CC1)N1CCN(c2ccnc3[nH]c(-c4ccc(C5(O)CCCOC5)cc4)cc23)CC1 (stereo not shown) . Reported pIC50?
Resp: ≥ 8.00

Req: Recorded pIC50 for CC(C)n1cc(-c2cc3c(N4CCN(C(=O)[C@H]5CC[C@H](C#N)CC5)CC4)ccnc3[nH]2)cn1 , please?
Resp: ≥ 8.00

Req: Which value of pIC50 has been reported for Cn1cc(-c2[nH]c3nccc(N4CCN(C(=O)O[C@H]5CCOC5)CC4)c3c2Cl)cn1 in the records?
Resp: ≥ 8.00

Req: What pIC50 value was documented for this molecule, CCOC(=O)N1CCN(c2ccnc3[nH]c(-c4cnn(CC(C)C#N)c4)cc23)CC1 (stereo not shown) ?
Resp: ≥ 8.00

Req: Requested read-out: pIC50. Entry: Cc1nc(-c2cc3c(N4CCN(C(=O)OC5CCC5)CC4)ccnc3[nH]2)cn1C
Resp: ≥ 8.00

Req: Field request: pIC50 | item: CCOC(=O)N1CCN(c2ccnc3[nH]c(-c4cnn(C(F)F)c4)c(C#N)c23)CC1
Resp: ≥ 8.00

Req: Which pIC50 is listed for Cn1cc(-c2cc3c(N4CCN(C(=O)O[C@H]5C[C@@H](O)C5)CC4)ccnc3[nH]2)cn1 ?
Resp: ≥ 8.00
